- Test system: Shigella sonnei IID 969
- procedure-text: In vitro antibacterial activity, MIC (standard strain)
- Format: cell-based
- condition-description: IID969, 10^6 cells/ml
Where a name gives a salt, the structure may show the parent alone.
quantity-measured: MIC (µg/mL)
Enter your answer as a number in µg/mL; do not include the unit.

Return reported MIC; argument: NCC1CCN(c2cc3c(cc2F)c(=O)c(C(=O)O)cn3C2CC2)C1 (stereo not shown) 0.05

Query: MIC; subject: CN(C)CC1CCN(c2c(F)cc3c(=O)c(C(=O)O)cn(C4CC4)c3c2Cl)C1 (stereo not shown) 0.05

// lookup MIC for CNCC1CCN(c2c(F)cc3c(=O)c(C(=O)O)cn(C4CC4)c3c2F)C1 (stereo not shown) [Example 8, hydrochloride] 0.0125

Which measured MIC value corresponds to CNCC1CCN(c2c(F)cc3c(=O)c(C(=O)O)cn(C4CC4)c3c2Br)C1 (stereo not shown) ? 0.025

Requested field: MIC. Item: CN(C)CC1CCN(c2c(F)cc3c(=O)c(C(=O)O)cn(C4CC4)c3c2F)C1 (stereo not shown) 0.05

Param item = CCNCC1CCN(c2c(F)cc3c(=O)c(C(=O)O)cn(C4CC4)c3c2Br)C1 (stereo not shown) ; retrieve measured MIC. 0.025

----------
- procedure-text: Urinary and bile excretion after oral administration, bioassay by cup method
- Type: in vivo
- condition-description: rat; fasted rats, 10 mg/kg oral; urine 6 ~ 24 hr; Mean ± S.D. (n=5); read-out: Concentration, urine
Structures can show the parent of a compound that is named as a salt.
Quick list: concentration at 24 h per entry.
Give just the number in µg/mL; leave the unit off.

INSERT INTO measurements (molecule, assay_result) VALUES
  ('CCNCC1CCN(c2c(F)cc3c(=O)c(C(=O)O)cn(C4CC4)c3c2F)C1 (centres unmarked) [Example 2, hydrochloride]', 22.1);

Field: next molecule
Quick one: concentration at 24 h for CCNCC1CCN(c2c(F)cc3c(=O)c(C(=O)O)cn(C4CC4)c3c2Cl)C1 (centres unmarked) ? 7.6

----------
- System: S. pneumoniae 28
- procedure-text: In vitro antibacterial activity, MIC (clinical isolates)
- Type: cell-based
- condition-description: Streptococcus pneumoniae, 10^6 cells/ml, clinical isolate
Counter-ions that a name gives are not always drawn.
quantity-measured: MIC (µg/mL)
All answers are understood in µg/mL, so give the number only.

See these solved cases before continuing.
INSERT INTO results (molecule, quantity_measured, unit_symbol, assay_result) VALUES
  ('CNCC1CCN(c2c(F)cc3c(=O)c(C(=O)O)cn(C4CC4)c3c2Cl)C1 (stereo not drawn) [Example 12, hydrochloride]', 'MIC', 'µg/mL', 0.05),
  ('CCn1cc(C(=O)O)c(=O)c2cc(F)c(N3CCNCC3)cc21 [NFLX, Norfloxacin, reference compound]', 'MIC', 'µg/mL', 6.25);

Proceed to the following item.
Please give the measured MIC for this molecule: CNCC1CCN(c2c(F)cc3c(=O)c(C(=O)O)cn(C4CC4)c3c2F)C1 (stereo not drawn) [Example 8, hydrochloride] 0.05

----------
- Test system: S. pyogenes 3107
- procedure-text: In vitro antibacterial activity, MIC (clinical isolates)
- Format: cell-based
- condition-description: Streptococcus pyogenes; S. pyogenes 3107; 10^6 cells/ml; clinical isolate; read-out: MIC
Counter-ions that a name gives are not always drawn.
Parameter MIC: see the listing below.
All answers are understood in µg/mL, so give the number only.

Guide cases for MIC, answers given:
INSERT INTO assay_data (compound, quantity_measured, assay_result) VALUES
  ('NCC1CCN(c2c(F)cc3c(=O)c(C(=O)O)cn(C4CC4)c3c2Cl)C1 (stereo not shown) [Example 14, hydrochloride]', 'MIC', 0.025),
  ('CNCC1CCN(c2c(F)cc3c(=O)c(C(=O)O)cn(C4CC4)c3c2Cl)C1 (stereo not shown) [Example 12, hydrochloride]', 'MIC', 0.05),
  ('CCNCC1CCN(c2c(F)cc3c(=O)c(C(=O)O)cn(C4CC4)c3c2F)C1 (stereo not shown) [Example 2, hydrochloride]', 'MIC', 0.05),
  ('CNCC1CCN(c2cc3c(cc2F)c(=O)c(C(=O)O)cn3C2CC2)C1 (stereo not shown) [Example 9, hydrochloride]', 'MIC', 0.1);

Entry under review: CN(C)CC1CCN(c2c(F)cc3c(=O)c(C(=O)O)cn(C4CC4)c3c2F)C1 (stereo not shown) . Reported MIC? 0.1

Look up MIC: NCC1CCN(c2c(F)cc3c(=O)c(C(=O)O)cn(C4CC4)c3c2Br)C1 (stereo not shown) 0.05

// query MIC value for entry CCNCC1CCN(c2c(F)cc3c(=O)c(C(=O)O)cn(C4CC4)c3c2Cl)C1 (stereo not shown) 0.05

Entry CCNCC1CCN(c2c(F)cc3c(=O)c(C(=O)O)cn(CC)c3c2F)C1 (stereo not shown) [Ref.1, reference compound] : reported MIC = ? 0.1

Find the recorded MIC belonging to CCCNCC1CCN(c2c(F)cc3c(=O)c(C(=O)O)cn(C4CC4)c3c2F)C1 (stereo not shown) [Example 10, hydrochloride] and report it. 0.2

Please look up its MIC: NCC1CCN(c2c(F)cc3c(=O)c(C(=O)O)cn(C4CC4)c3c2F)C1 (stereo not shown) [Example 1, hydrochloride] 0.05

Sample CNCC1CCN(c2c(F)cc3c(=O)c(C(=O)O)cn(C4CC4)c3c2F)C1 (stereo not shown) [Example 8, hydrochloride] — what was its MIC? 0.05

Requested read-out: MIC. Entry: CCNCC1CCN(c2c(F)cc3c(=O)c(C(=O)O)cn(C4CC4)c3c2Br)C1 (stereo not shown) 0.05

Fill in the blank: the reported MIC of CNCC1CCN(c2c(F)cc3c(=O)c(C(=O)O)cn(C4CC4)c3c2Br)C1 (stereo not shown) is ____. 0.05

Can you look up the measured MIC of CC(C)NCC1CCN(c2c(F)cc3c(=O)c(C(=O)O)cn(C4CC4)c3c2F)C1.Cl (stereo not shown) for me? 0.2

Using the record for CCNCC1CCN(c2cc3c(cc2F)c(=O)c(C(=O)O)cn3C2CC2)C1.Cl (stereo not shown) , report its MIC. 0.2

What value of MIC has been recorded for this entry: CN(C)CC1CCN(c2c(F)cc3c(=O)c(C(=O)O)cn(C4CC4)c3c2Cl)C1 (stereo not shown) 0.05

----------
- procedure-text: Absorption and distribution: concentration in blood and organs after oral administration, bioassay by cup method
- Type: in vivo
- condition-description: rat; rats, fasted, 10 mg/kg oral, serum, 2 hr after administration; Mean ± S.D. (n=5); read-out: Concentration in organs: Serum
Counter-ions that a name gives are not always drawn.
quantity-measured: concentration at 2 h (ng/mL)
Record the value in ng/mL, omitting the unit from your answer.

INSERT INTO assay_data (compound, unit_symbol, assay_result) VALUES
  ('CCNCC1CCN(c2c(F)cc3c(=O)c(C(=O)O)cn(C4CC4)c3c2F)C1 (centres unmarked) [Example 2, hydrochloride]', 'ng/mL', 900);

Moving on to another compound below.
Quick check: concentration at 2 h of CCNCC1CCN(c2c(F)cc3c(=O)c(C(=O)O)cn(C4CC4)c3c2Cl)C1 (centres unmarked) [Example 13] ? 570

----------
- procedure-text: Absorption and distribution: concentration in blood and organs after oral administration, bioassay by cup method
- Assay type: in vivo
- condition-description: rat; rats, fasted, 10 mg/kg oral, kidney, 1/2 hr after administration; Mean ± S.D. (n=5); read-out: Concentration in organs: Kidney
Counter-ions that a name gives are not always drawn.
Recorded concentration at 0.5 h values for a group of compounds are listed next.
Number only, in ng/g; omit the unit.

INSERT INTO results (compound, quantity_measured, assay_result) VALUES
  ('CCNCC1CCN(c2c(F)cc3c(=O)c(C(=O)O)cn(C4CC4)c3c2F)C1 (centres unmarked) [Example 2, hydrochloride]', 'concentration at 0.5 h', 8500);

Now examine the next entry.
GET /values?readout=concentration at 0.5 h&item= CCNCC1CCN(c2c(F)cc3c(=O)c(C(=O)O)cn(C4CC4)c3c2Cl)C1 (centres unmarked) [Example 13] 5630

----------
- Tested on: Clostridium perfringens KYA 13123
- procedure-text: microbe, parasite or virus in culture
- Type: cell-based
- condition-description: KYA13123
List of MIC values.
# value in µg/mL; strip the unit string

INSERT INTO assay_data (compound, assay_result) VALUES
  ('CN(C)CC1CCN(c2c(F)cc3c(=O)c(C(=O)O)cn(C4CC4)c3c2F)C1 (stereo not drawn)', 0.2),
  ('CC(C)NCC1CCN(c2c(F)cc3c(=O)c(C(=O)O)cn(C4CC4)c3c2F)C1.Cl (stereo not drawn)', 0.2);

Give MIC (Clostridium perfringens KYA 13123) of the following compound: CCNCC1CCN(c2cc3c(cc2F)c(=O)c(C(=O)O)cn3C2CC2)C1.Cl (stereo not drawn) 0.2

Where these numbers come from: patent EP0183129A1
